Data origin: patent US20180030151A1

FXa assay % of FXa alone, 10 nM Ab, 10 nM TFPI listing for selected binders.
- SUBJECT OF TEST: recombinant human TFPI (tissue factor pathway inhibitor) (human, UniProt P10646 29-304)
- ASSAY COMMENT: cell-based or functional assay
A bare number is not enough; add the unit after it.

INSERT INTO results (binder, recorded_measurement) VALUES
  ('clone 3016 (antibody, V domains shown) VH: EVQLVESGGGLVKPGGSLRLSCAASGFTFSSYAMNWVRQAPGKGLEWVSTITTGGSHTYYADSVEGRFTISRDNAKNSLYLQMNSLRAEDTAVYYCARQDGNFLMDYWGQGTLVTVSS VL: DVVMTQTPLSLPVTLGQPASISCKSSQSLLDSDGKTYLNWLQQRPGQSPKRLIYLVSKLDSGVPDRFTGSGSGTDFTLKISRVEAEDVGVYYCWQGTHLPFTFGQGTKVEIKR', '6.3%'),
  ('clone 3024 (antibody, V domains shown) VH: EVQLVESGGGLVKPGGSLRLSCAASGFTFSSYAMSWVRQAPGKGLEWVSTITTGGSYTYYADSVQGRFTISRDNAKNSLYLQMNSLRAEDTAVYYCARQDGNFLMDYWGQGTLVTVSS VL: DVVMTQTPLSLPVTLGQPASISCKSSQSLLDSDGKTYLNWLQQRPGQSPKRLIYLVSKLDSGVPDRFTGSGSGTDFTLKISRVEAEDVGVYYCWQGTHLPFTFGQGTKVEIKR', '6.6%'),
  ('clone 1021 (antibody, V domains shown) VH: EVQLVESGGGLVKPGGSLRLSCAASGFTFSSYAMNWVRQAPGKGLEWVSTITTGGSYTYYADSVDGRFTISRDNAKNSLYLQMNSLRAEDTAVYYCARQDGHFLMDYWGQGTLVTVSS VL: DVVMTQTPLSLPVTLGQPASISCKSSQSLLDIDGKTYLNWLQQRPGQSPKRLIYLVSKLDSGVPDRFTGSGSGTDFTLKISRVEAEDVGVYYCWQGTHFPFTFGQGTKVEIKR', '32.9%');

Could you share which FXa assay % of FXa alone, 10 nM Ab, 10 nM TFPI value was measured for clone 3007 (antibody, V domains shown) VH: EVQLVESGGGLVKPGGSLRLSCAASGFTFTSYAMNWVRQAPGKGLEWVSTITLGGSYTYYADSVQGRFTISRDNAKNSLYLQMNSLRAEDTAVYYCARQDGNFLMDYWGQGTLVTVSS VL: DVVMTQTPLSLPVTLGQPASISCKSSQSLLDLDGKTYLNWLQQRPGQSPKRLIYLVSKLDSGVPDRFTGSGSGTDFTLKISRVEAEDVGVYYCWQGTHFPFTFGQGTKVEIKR ?
3.6%
